study_system: CDK6/cyclinD3 (Homo sapiens, UniProt Q00534)
Sequence (Q00534 whole entry): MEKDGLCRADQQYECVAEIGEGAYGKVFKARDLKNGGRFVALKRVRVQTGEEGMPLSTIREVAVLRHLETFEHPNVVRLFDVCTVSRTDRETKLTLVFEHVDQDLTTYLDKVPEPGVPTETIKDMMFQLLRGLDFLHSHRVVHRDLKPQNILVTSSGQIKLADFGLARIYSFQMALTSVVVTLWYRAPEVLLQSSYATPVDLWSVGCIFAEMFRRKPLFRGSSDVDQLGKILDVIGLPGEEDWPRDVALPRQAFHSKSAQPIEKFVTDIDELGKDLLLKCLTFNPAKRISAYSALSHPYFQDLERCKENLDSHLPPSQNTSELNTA
Sequence (P30281 whole entry partner): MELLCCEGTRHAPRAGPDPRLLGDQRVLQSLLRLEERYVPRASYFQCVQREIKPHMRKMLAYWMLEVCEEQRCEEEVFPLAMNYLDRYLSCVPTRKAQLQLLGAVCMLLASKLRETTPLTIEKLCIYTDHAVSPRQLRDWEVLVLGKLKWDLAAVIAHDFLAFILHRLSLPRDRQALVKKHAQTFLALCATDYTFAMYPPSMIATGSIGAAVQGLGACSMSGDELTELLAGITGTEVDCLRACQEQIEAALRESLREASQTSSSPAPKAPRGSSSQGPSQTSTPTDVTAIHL
assay_text: Cyclin-dependent kinase activity assay (continuous ATP coupling assay), CDK6/cyclinD3
measurement_setup: CDK6/cyclinD3 25 nM, ATP 500 μM, Rb copeptide 500 μM, 15 min preincubation, pH 7.5, 1% DMSO
Please go through the items and note down their IC50.

Report IC50, nothing else, for this molecule: CNS(=O)(=O)c1ccc(Nc2ncc(C(F)(F)F)c(-n3cc(F)cn3)n2)cc1 ≥ 100 nM

Report IC50, nothing else, for this molecule: CNS(=O)(=O)c1ccc(Nc2ncc(C)c(-n3cc(CC(C)(C)O)cn3)n2)cc1 10 to 100 nM

Report IC50, nothing else, for this molecule: O=S(=O)(NCCO)c1ccc(Nc2nccc(-n3cccn3)n2)cc1 ≥ 100 nM

Report IC50, nothing else, for this molecule: CCS(=O)(=O)N1CC2(CC(Nc3ncc(C(F)(F)F)c(-n4cccn4)n3)C2)C1 ≥ 100 nM
